Target: human recombinant Glo-I enzyme (rhGlo-I) (Homo sapiens, UniProt Q04760)
Construct: N-terminal Met and 6-His tag (N); purchased R&D Systems; host or cells: E. coli
Sequence (Q04760 2-184 limits assumed): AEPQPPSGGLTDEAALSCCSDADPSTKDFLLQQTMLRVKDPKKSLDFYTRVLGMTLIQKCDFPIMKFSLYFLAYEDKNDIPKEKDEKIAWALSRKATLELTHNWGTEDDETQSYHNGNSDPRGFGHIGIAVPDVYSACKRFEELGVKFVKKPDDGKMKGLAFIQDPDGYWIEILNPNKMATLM
Assay: Glyoxalase-I (Glo-I) enzyme inhibition assay
Format: biochemical
Settings: 6.25 µM; read-out: Trial three (%inhibtion)

# molecule, assayed-system, inhibition at 6.25 µM / %
measured = [
    ("Cc1ccc(C(=O)c2cc(O)c(O)c([N+](=O)[O-])c2)cc1 [Tolcapone, reference compound]", "human recombinant Glo-I enzyme (rhGlo-I) (Homo sapiens, UniProt Q04760)", 36.3),
    ("O=c1cc(O)cc(/C=C/c2ccc(O)c(O)c2)o1", "human recombinant Glo-I enzyme (rhGlo-I) (Homo sapiens, UniProt Q04760)", 24),
    ("O=C(/C=C/c1ccc(O)c(O)c1)O[C@H]1[C@H](O)[C@@H](O)[C@H](OCCc2ccc(O)c(O)c2)O[C@@H]1CO [Calceolarioside A]", "human recombinant Glo-I enzyme (rhGlo-I) (Homo sapiens, UniProt Q04760)", 9.01),
]
